These measurements were taken from PubChem BioAssay.

Target: NADPH oxidase 2 (Homo sapiens)
Test: compounds shifting NOX2 Amplex Red fluorescence – cell-based, HEK293-NOX2, PMA-stimulated, NOX inhibitor project, primary screen (AID 1159); also: test concentration not given here
Settings: 45 min, higher = more signal, called active from +8 up or from −8 down
parameter: z-score
Note: the reply should be a number with no unit written.

Example results:
compound	target system	z-score
COc1ccc(C#Cc2ccc3c(c2)[C@]2(C(=O)N3)[C@H](C(=O)N3CCc4cc(OC)c(OC)cc4C3)[C@H]3C(=O)O[C@H](c4ccccc4)[C@H](c4ccccc4)N3[C@@H]2c2ccc(OCCO)cc2)cc1	NADPH oxidase 2 (Homo sapiens)	0.0908
C=CC[C@@]1(C(=O)NCCN2CCOCC2)N=C(c2ccc(OCCCO)cc2)O[C@@H]1c1ccccc1CN=[N+]=[N-]	NADPH oxidase 2 (Homo sapiens)	-0.842
CC(C)(C)OC(=O)CC[C@]1(C(=O)NCC(O)CO)N=C(c2ccc(OCCCO)cc2)O[C@H]1c1ccccc1CN=[N+]=[N-] (stereo not given in full)	NADPH oxidase 2 (Homo sapiens)	1.38
Cc1ccc(S(=O)(=O)N2CC(C(=O)O)=CCC2c2ccccc2)cc1 (stereo not given)	NADPH oxidase 2 (Homo sapiens)	-0.363
O=C1O[C@H](c2ccccc2)[C@H](c2ccccc2)N2[C@H]1[C@@H](C(=O)NC[C@H](O)c1ccccc1)[C@]1(C(=O)Nc3ccc(C#CC4=CCCCC4)cc31)[C@H]2c1ccc(O)cc1	NADPH oxidase 2 (Homo sapiens)	2.08
CCOC(=O)C[C@H]1[C@H](OC(=O)c2cc3ccccc3oc2=O)[C@@H](NC(=O)c2ccc3ccccc3c2)c2cc(OCCCO)ccc2N1C(=O)c1ccccc1	NADPH oxidase 2 (Homo sapiens)	-0.539
O=C(NCc1ccccc1)[C@@H]1c2ccccc2C(=O)N(C2CCCCC2)[C@H]1c1ccc(CO)cc1	NADPH oxidase 2 (Homo sapiens)	-0.245
O=C1OCC=C[C@H]2OC34C=CCN(c5ccc(Cl)cc5)C(=O)[C@H]3N(CCCO)C(=O)[C@@H]4[C@@H]12 (stereo not given in full)	NADPH oxidase 2 (Homo sapiens)	0.846

Read off the recorded z-score for C=CCC(OC(C)=O)[C@@H]1[C@@H](N(Cc2ccc(-c3ccccc3)cc2)C(=O)c2ccc(C)cc2)c2cc(OCCCO)ccc2N1C(=O)Cc1ccc(OC)cc1 (stereo not given in full) -0.137

Read off the recorded z-score for "COc1c(C)cc(-c2cc3c(c(-c4ccccc4)n2)[Si](C(C)C)(C(C)C)O[C@H]3c2ccccc2)cc1C" -1.36

Read off the recorded z-score for "O=c1cccc(-c2ccc3ccccc3c2)o1" -0.415

Read off the recorded z-score for "Cc1cccc(/C=C/C=O)c1" -0.0862

Read off the recorded z-score for CN1C(=O)C2C=CC(C(O)c3ccccc3)N(NC(=O)OC(C)(C)C)C2C1=O (stereo not given) -1.08

Read off the recorded z-score for "C=CCN1C(=O)[C@@]2(O[C@@H](CCO)[C@H]([Si](C)(C)c3ccc(OC)cc3)[C@H]2C)c2cc(NC(C)=O)ccc21" -1.07

Read off the recorded z-score for "CCCNC(=O)[C@@]1(C)c2ccccc2C(=O)N(Cc2cc(C(F)(F)F)cc(C(F)(F)F)c2)[C@H]1c1ccc(CO)cc1" -1.98
